melting point values by entry

- molecule: "COc1ccc(-c2cc3cc(OC)cc(CBr)c3o2)cc1"
  melting point: "158 to 160 °C"
- molecule: "CN(C(=O)CN(C(=O)CNC(=O)Nc1cccc(C#N)c1)c1ccccc1)c1ccccc1"
  melting point: "204 °C"
- molecule: "CCC1=C(C#N)C(c2cccc(Cl)c2Cl)c2c[nH]nc2N1 (stereo unspecified)"
  melting point: "> 300 °C"
- molecule: "O=C1c2cscc2Nc2ccccc2N1C1C=CCCC1 (stereo unspecified)"
  melting point: "147 to 149 °C"
- molecule: "CC(=O)Nc1cc(F)cc2c1OCCC21SC(=O)NC1=O (stereo unspecified)"
  melting point: "278 to 280 °C"
- molecule: "N#CCCNC(=O)c1cccc(-c2cccc3nn(Cc4cccc(F)c4)cc23)c1"
  melting point: "170 to 171 °C"

###

readoutName: melting point (°C)

- entrySmiles: "CC(C)(C)c1cc(CCc2ccccc2NC(=O)NC(c2ccccc2)c2ccccc2)cc(C(C)(C)C)c1O"
  resultUnits: "°C"
  valuePrefix: "="
  measValue: 187
- entrySmiles: "c1ccc(C2CCN(CC34CC(c5ccccc53)c3ccccc34)CC2)cc1"
  resultUnits: "°C"
  valuePrefix: ">"
  measValue: 300
- entrySmiles: "Cc1cc(C(C)(CC(=O)O)c2ccc(O)c(C)c2)ccc1O"
  resultUnits: "°C"
  valuePrefix: "="
  measValue: 130

###

Below, each entry is listed alongside its reported melting point.

- compound: "NCC1Cc2cc(Cl)cc(-c3ccc(F)c(F)c3)c2O1 (stereo not given)"
  melting point: "> 250 °C"
- compound: "CCCN(CCC)C(=O)Cn1c(=O)[nH]c2cnc(-c3ccccc3)nc21"
  melting point: "190 to 191 °C"
- compound: "O=Cc1cc([N+](=O)[O-])ccc1OCCCc1ccccc1"
  melting point: "72 to 73 °C"
- compound: "CN(CC(=O)NO)C(=O)[C@H]1CCCC[C@H]1C(=O)O (relative stereo)"
  melting point: "131 to 133 °C"
- compound: "O=C(NC1CCCC1)c1ccc(S(=O)(=O)Cl)cc1"
  melting point: "143 °C"

###

readoutName: melting point

- compound: "CCOC(=O)NC(C)C(=O)c1ccc2cc(OC)ccc2c1 (single isomer, unassigned; (+))"
  measValue: "96 to 97 °C"
- compound: "Cn1ccc(=S)c2ccccc21"
  measValue: "208 to 210 °C"
- compound: "COc1ccc(S(=O)(=O)Nc2ccccc2NC(=O)c2ccco2)cc1"
  measValue: "158 to 159 °C"
- compound: "Cc1cc(-c2ccc(Cl)c(Cl)c2)nc(-n2cnc(-c3ccc(S(N)(=O)=O)cc3)c2)n1"
  measValue: "282 °C"
- compound: "C=C(C)C(=O)OC1c2nccnc2C(=O)N1c1ccc2ccc(Cl)nc2n1 (stereo not drawn)"
  measValue: "255 °C"
- compound: "COC(=O)c1ccc2c(ccn2Cc2cccc([N+](=O)[O-])c2)c1"
  measValue: "129 to 130 °C"
- compound: "CN(CCc1nc(-c2cc(C(C)(C)C)c(O)c(C(C)(C)C)c2)cs1)C(=O)OC(C)(C)C"
  measValue: "204 °C"
- compound: "CC(C)(C)OC(=O)NC1CCN(CC(=O)O)C1=O (stereo not drawn)"
  measValue: "62 to 64 °C"
- compound: "Cn1nc(-c2nc(C=O)c(Cl)cc2F)c(Cl)c1OC(F)F"
  measValue: "120 to 121 °C"
- compound: "CS(=O)(=O)c1ccc(-c2c(-c3ccccc3)noc2C(F)F)cc1"
  measValue: "126 to 128 °C"
- compound: "Oc1ccc(-c2nn(-c3cccc(F)c3)c3cc(O)ccc23)c(O)c1"
  measValue: "> 200 °C"
- compound: "C[C@]12CCC(=O)N[C@@H]1CCc1cc(Sc3ccc4ccccc4n3)ccc12"
  measValue: "220 to 222 °C"
- compound: "CC(C)NC(=O)NC(C)(C)C(=O)NCCO[N+](=O)[O-]"
  measValue: "120 to 122 °C"
- compound: "COc1cc2c(cc1Nc1ncc(Cl)c(Nc3ccccc3S(=O)(=O)N(C)C)n1)CCN(C(=O)C(C)(C)N)CC2"
  measValue: "93 to 101 °C"
- compound: "CNC(=O)c1oc(C(C)(C)C)cc1NC(=O)Nc1ccc(C)cc1"
  measValue: "190 to 193 °C"
- compound: "CCCCNC(=O)c1cn2nc(N3CCN(C(=O)c4ccccc4C(F)(F)F)CC3)ccc2n1"
  measValue: "187 to 189 °C"
- compound: "CC(C)(C)OC(=O)Nc1cc(N2CCS(=O)(=O)CC2)c(C#Cc2ccccc2)cc1[N+](=O)[O-]"
  measValue: "217 to 221 °C"
- compound: "CCCCC(CC)COC(=O)c1cc(CN(CC(=O)O)CC(=O)O)c(O)c(CN(CC(=O)O)CC(=O)O)c1 (stereo not drawn)"
  measValue: "133 to 141 °C"
- compound: "CNc1nc(Nc2ccc(Cl)c(Cl)c2)ncc1NC(=O)OC"
  measValue: "303 to 305 °C"
- compound: "OCCN1CCN(C2=Nc3cc(Br)ccc3Oc3cscc32)CC1"
  measValue: "150 to 152 °C"
- compound: "O=C1C(c2ccccc2)=C(c2cccs2)C(=O)N1c1ccc(Cl)cc1"
  measValue: "176 to 177 °C"
- compound: "N#CCc1c[nH]c2ccc(NC(=O)c3ccc[nH]3)cc12"
  measValue: "216 to 218 °C"
- compound: "C=C[Si](C)(c1ccccc1)c1cccc(Cl)c1C(=O)NCC (stereo not drawn)"
  measValue: "85 to 87 °C"
- compound: "CCCC1c2c(ccc(C(C)=O)c2O)OC1COc1ccc(CC(=O)O)cc1 (stereo not drawn)"
  measValue: "104 to 106 °C"
- compound: "N#CC(Cl)=C(Cl)S(=O)(=O)c1ccccc1"
  measValue: "72 °C"
- compound: "Cc1ccc(C)c(OCCCC(C)(C)C(=O)Nc2c(F)cc(F)cc2F)c1"
  measValue: "82 to 83 °C"
- compound: "CS(=O)(=O)N(N(CCCl)S(=O)(=O)c1ccccc1)S(C)(=O)=O"
  measValue: "114 to 115 °C"
- compound: "CCCCCCCCCCCC(=O)NCc1ccsc1"
  measValue: "83 to 84 °C"
- compound: "O=c1cc2c3cccnc3sn2c2ccccc12"
  measValue: "> 350 °C"
- compound: "CCOC(=O)C1=C(COCc2nnn[nH]2)NC(C)=C(C(=O)OC)C1c1ccccc1Cl (stereo not drawn)"
  measValue: "122 to 124 °C"
- compound: "COC(=O)CC[C@H](NC(=O)CCC#Cc1cnc2nc(NC(=O)C(C)(C)C)nc(O)c2c1)C(=O)OC"
  measValue: "162 to 163 °C"
- compound: "O=c1cc(CO)oc2cc(O)ccc12"
  measValue: "250 to 252 °C"
- compound: "Cc1onc(NS(=O)(=O)c2cc(-c3ncccn3)ccc2-c2ccccc2CN(C)C(=O)CC(C)(C)C)c1C"
  measValue: "120 to 128 °C"
- compound: "Cc1cc(C)cc(SCc2c(C(C)C)nc(C(C)C)c(CO)c2-c2ccc(F)cc2)c1"
  measValue: "109 to 110 °C"
- compound: "CCC(C)c1cc2c(cc1O)CC[C@@H]1[C@@H]2CC[C@]2(C)C(=O)CC[C@@H]12 (stereo partly drawn)"
  measValue: "186 to 187 °C"
- compound: "O=C(O)c1ccc2c(c1)S(=O)c1ccc([N+](=O)[O-])cc1C=C2 (stereo not drawn)"
  measValue: "278 to 281 °C"
- compound: "CC(C)C(=O)CCC(C)C1CCC2(C#N)C3=CCC4CC(OC(=O)c5ccccc5)CCC4(C)C3CCC12C (stereo not drawn)"
  measValue: "168 to 169 °C"
- compound: "CC(C)C[C@@H](NS(=O)(=O)c1ccc(N2CCC(c3ccccc3)CC2)cc1)C(=O)O"
  measValue: "163 to 165 °C"
